Source: patent US9216173B2

Target: recombinant human GST-SYK (Homo sapiens, UniProt P43405)
Construct: purchased Carna Biosciences 08-176
Assay: Homogeneous Time-Resolved Fluorescence (HTRF) assay for the recombinant human Syk enzyme
Assay type: biochemical
Conditions: GST-hSYK 5 pM, ATP 25 μM, 10-dose titration 10 μM to 0.508 nM; read-out: rhSYK Activity (IC50 rating)
Description: Homogeneous Time-Resolved Fluorescence (HTRF) Assay for the Recombinant Human Syk Enzyme A recombinant GST-hSYK fusion protein was used to measure potency of compounds to inhibit human Syk activity. […] Final volume of the reaction was 10 μL. Phosphorylation of the peptide was allowed to proceed for 45 minutes at room temperature. […] The resulting HTRF signal was measured after 30 minutes on an EnVision (Perkin-Elmer) reader using a time-resolved fluorescence protocol.
measurement label: IC50

Known IC50 results, listed for orientation:
[
  {
    "molecule": "CCc1cccc(Nc2cc(N[C@@H]3CCCC[C@@H]3N)cnc2C(N)=O)n1 [Example 13]",
    "val": "< 0.01 µM"
  },
  {
    "molecule": "Cc1cccc(Nc2cc(NCCN)cnc2C(N)=O)n1 [Example 1.4]",
    "val": "0.01 to 0.1 µM"
  },
  {
    "molecule": "NC(=O)c1ncc(N[C@@H]2CCCC[C@@H]2N)cc1Nc1ncn(-c2ccccc2)n1 [Example 1.44]",
    "val": "0.01 to 0.1 µM"
  }
]

Look up IC50 for this molecule: Cc1cc(C)nc(Nc2cc(N[C@@H]3[C@H](N)CCCC3(F)F)cnc2C(N)=O)c1 [Example 2.5]
< 0.01 µM

// next record CCn1ccc(Nc2cc(N[C@@H]3CCCC[C@@H]3N)cnc2C(N)=O)n1 [Example 1.49]
0.01 to 0.1 µM

// next record Cc1cc(C)nc(Nc2cc(N[C@H]3CCC[C@H]3N)cnc2C(N)=O)c1 (single isomer, unassigned) [Example 1.25]
0.01 to 0.1 µM

// next record CC1=CCCc2nc(Nc3cc(N[C@@H]4CCCC[C@@H]4N)cnc3C(N)=O)ccc21 [Example 18]
< 0.01 µM

// next record Cc1cc(C)n2nc(Nc3cc(N[C@@H]4CCCC[C@@H]4N)cnc3C(N)=O)cc2n1 [Example 1.55]
< 0.01 µM

---

// reported IC50 per item
Target: recombinant human GST-SYK (Homo sapiens)
Construct: purchased Carna Biosciences 08-176
Assay: Homogeneous Time-Resolved Fluorescence (HTRF) assay for the recombinant human Syk enzyme
Type: biochemical
Settings: GST-hSYK 5 pM, ATP 25 μM, 10-dose titration 10 μM to 0.508 nM; read-out: IC50
# output: bare number, implied unit nM

Look up IC50 for this compound: Cn1ccc(Nc2cc(N[C@@H]3CS(=O)(=O)CC[C@@H]3N)cnc2C(N)=O)n1 (relative stereo)
340

// next record Cc1cc(C)nc(Nc2cc(NC(C(N)=O)C(C)C)cnc2C(N)=O)c1 (stereo not drawn)
12

// next record Cc1cc(C)nc(Nc2cc(N)cnc2C(N)=O)c1
2900

---

// reported IC50 per item
Target: recombinant human GST-SYK (Homo sapiens, UniProt P43405)
Construct: purchased Carna Biosciences 08-176
Assay: Homogeneous Time-Resolved Fluorescence (HTRF) assay for the recombinant human Syk enzyme
Type: biochemical
Details: GST-hSYK 5 pM, ATP 25 μM, 10-dose titration 10 μM to 0.508 nM; read-out: rhSYK Activity (IC50 rating)

[
  {
    "compound": "Cc1cc(Nc2cc(N[C@@H]3CCCC[C@@H]3N)cnc2C(N)=O)nc(-c2cnn(C)c2)c1",
    "measurement target": "recombinant human GST-SYK (Homo sapiens, UniProt P43405)",
    "IC50": "< 0.01 µM"
  },
  {
    "compound": "COc1cccc(Nc2cc(N[C@@H]3CCCC[C@@H]3N)cnc2C(N)=O)n1",
    "measurement target": "recombinant human GST-SYK (Homo sapiens, UniProt P43405)",
    "IC50": "< 0.01 µM"
  },
  {
    "compound": "Cc1ccc(-n2ccc(Nc3cc(N[C@@H]4CCCC[C@@H]4N)cnc3C(N)=O)n2)cc1C",
    "measurement target": "recombinant human GST-SYK (Homo sapiens, UniProt P43405)",
    "IC50": "< 0.01 µM"
  },
  {
    "compound": "Cc1nc(Nc2cc(N[C@@H]3CCCC[C@@H]3N)cnc2C(N)=O)ccc1-c1ccc(-n2nccn2)cc1",
    "measurement target": "recombinant human GST-SYK (Homo sapiens, UniProt P43405)",
    "IC50": "< 0.01 µM"
  },
  {
    "compound": "Cc1nc(Nc2cc(N[C@@H]3CCCC[C@@H]3N)cnc2C(N)=O)ccc1-c1ccc2c(c1)CNC2=O",
    "measurement target": "recombinant human GST-SYK (Homo sapiens, UniProt P43405)",
    "IC50": "< 0.01 µM"
  }
]

What measured IC50 is associated with Cc1cc(C)nc(Nc2cc(NC(C)CN)cnc2C(N)=O)c1 (centres unmarked) on recombinant human GST-SYK (Homo sapiens, UniProt P43405)?
< 0.01 µM

// next record CCc1cccc(Nc2cc(N[C@H]3[C@@H](N)CCCC3(F)F)cnc2C(N)=O)n1
< 0.01 µM

// next record NC(=O)c1ncc(N[C@@H]2CCCC[C@@H]2N)cc1Nc1ccn(-c2ccccc2)n1
< 0.01 µM

// next record COc1cc(Nc2cc(N[C@@H]3CCCC[C@@H]3N)cnc2C(N)=O)nc(OC)n1
< 0.01 µM

// next record Cc1nc(Nc2cc(N[C@@H]3CCCC[C@@H]3N)cnc2C(N)=O)ccc1-c1ccc2cccnc2c1
< 0.01 µM

// next record Cc1ccc(-n2ccc(Nc3cc(N[C@@H]4CCCC[C@@H]4N)cnc3C(N)=O)n2)cc1
< 0.01 µM
